Reported values of melting point for individual entries

| Molecule | melting point |
| --- | --- |
| CC(C)n1nc(-c2c(-c3ccccc3)nn3ccc(OCc4ccncc4)cc23)ccc1=O [Example 19] | 218 to 219.5 °C |
| CC(C)n1nc(-c2c(-c3ccccc3)nn3ccc(OC4CCN(C(=O)N(C)C)CC4)cc23)ccc1=O [Example 56] | 164 to 166 °C |
| CC(C)n1nc(-c2c(-c3ccccc3)nn3ccc(C(=O)NC(C)(C)C)cc23)ccc1=O [Example 83] | 200 to 201 °C |
| CC(C)n1nc(-c2c(-c3ccccc3)nn3ccc(OCCC4CCCC4)cc23)ccc1=O [Example 33] | 159.5 to 160.5 °C |
| CC(C)n1nc(-c2c(-c3ccccc3)nn3ccc(OCCN4CCCC4)cc23)ccc1=O [Example 17] | 149 to 150 °C |
| CC(C)n1nc(-c2c(-c3ccccc3)nn3ccc(C(=O)NC4CCCCCC4)cc23)ccc1=O [Example 140] | 239 to 240 °C |
| CC(=O)COc1ccn2nc(-c3ccccc3)c(-c3ccc(=O)n(C(C)C)n3)c2c1 [Example 27] | 172.5 to 173.5 °C |

Ask: Look up melting point: CCN(CC)C(=O)COc1ccn2nc(-c3ccccc3)c(-c3ccc(=O)n(C(C)C)n3)c2c1 [Example 41]
Reply: 125 to 126.5 °C

====

Reported values of melting point for individual entries

Examples with their reported melting point follow.
| Chemical Structure | Result Value |
| --- | --- |
| CC(C)n1nc(-c2c(-c3ccccc3)nn3ccc(OCC(=O)NC4CC4)cc23)ccc1=O | 199 to 200 °C |
| CC(C)n1nc(-c2c(-c3ccccc3)nn3ccc(N4CCN(S(C)(=O)=O)CC4)cc23)ccc1=O | 219 to 220 °C |
| COc1ccc(Oc2ccn3nc(-c4ccccc4)c(-c4ccc(=O)n(C(C)C)n4)c3c2)nc1 | 148 to 150 °C |
| COc1ccn2nc(-c3ccc(F)cc3)c(-c3ccc(=O)n(C)n3)c2c1 | 221 to 222 °C |
| CC(C)n1nc(-c2c(-c3ccccc3)nn3ccc(OCC(=O)NC4CCCCC4)cc23)ccc1=O | 170 to 171.5 °C |

From here, focus on the item given below.
Ask: Look up melting point: CC(C)NC(=O)c1ccn2nc(-c3ccccc3)c(-c3ccc(=O)n(C(C)C)n3)c2c1
Reply: 230 to 232 °C

====

Reported values of melting point for individual entries

| Molecule | Result Value |
| --- | --- |
| CC(=O)Nc1cccc(Oc2ccn3nc(-c4ccccc4)c(-c4ccc(=O)n(C(C)C)n4)c3c2)c1 [Example 36] | 177.5 to 178.5 °C |
| COCCNC(=O)COc1ccn2nc(-c3ccccc3)c(-c3ccc(=O)n(C(C)C)n3)c2c1 [Example 66] | 144.5 to 145.5 °C |
| COC(=O)N1CCN(c2ccn3nc(-c4ccccc4)c(-c4ccc(=O)n(C(C)C)n4)c3c2)CC1 [Example 108] | 206 to 207 °C |
| CCn1nc(-c2c(-c3ccc(F)cc3)nn3ccc(OC)cc23)ccc1=O [Example 131] | 179 to 180 °C |
| CC(C)n1nc(-c2c(-c3ccccc3)nn3ccc(N4CCCC4=O)cc23)ccc1=O [Example 153] | 266 to 267 °C |

Ask: Look up melting point: COc1ccn2nc(-c3ccccc3)c(-c3ccc(=O)n(C)n3)c2c1 [Example 115]
Reply: 183 to 184 °C

Ask: Look up melting point: COc1ccn2nc(-c3ccccc3)c(-c3ccc(=O)n(C4CCOCC4)n3)c2c1 [Example 124]
Reply: 224 to 225 °C

Ask: Look up melting point: CC(C)n1nc(-c2c(-c3ccccc3)nn3ccc(C(=O)N4CCC(c5ccccc5)CC4)cc23)ccc1=O [Example 84]
Reply: 184 to 185 °C

====

Reported values of Ki for individual entries
molecular target: UniProt P30542; assay: Adenosine antagonistic activity, radioligand binding, A1 receptor; details: [3H]DPCPX 4.5 nM
Sequence (P30542 whole entry): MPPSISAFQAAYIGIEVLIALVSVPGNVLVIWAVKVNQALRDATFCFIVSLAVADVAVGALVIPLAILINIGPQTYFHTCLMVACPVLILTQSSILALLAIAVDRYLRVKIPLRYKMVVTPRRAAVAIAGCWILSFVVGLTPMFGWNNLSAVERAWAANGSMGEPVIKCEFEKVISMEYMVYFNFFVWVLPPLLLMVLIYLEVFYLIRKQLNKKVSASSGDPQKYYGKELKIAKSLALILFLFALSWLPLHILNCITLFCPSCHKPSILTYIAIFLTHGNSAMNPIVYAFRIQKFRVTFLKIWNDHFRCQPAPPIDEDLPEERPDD
Value expressed in nM; do not type the unit.

Ask: Look up Ki: CC(C)n1nc(-c2c(-c3ccccc3)nn3ccc(N4CCN(C)CC4)cc23)ccc1=O
Reply: 0.24

Ask: Look up Ki: CC(C)n1nc(-c2c(-c3ccccc3)nn3ccc(OCCN(C)C)cc23)ccc1=O
Reply: 0.98

Ask: Look up Ki: CC(C)n1nc(-c2c(-c3ccccc3)nn3ccc(O)cc23)ccc1=O
Reply: 0.14

Ask: Look up Ki: CC(C)n1nc(-c2c(-c3ccccc3)nn3ccc(Oc4ccccn4)cc23)ccc1=O
Reply: 0.42

Ask: Look up Ki: CC(C)n1nc(-c2c(-c3ccccc3)nn3ccc(C(=O)N(C)C)cc23)ccc1=O
Reply: 0.25

Ask: Look up Ki: CC(C)n1nc(-c2c(-c3ccccc3)nn3ccc(NC(=O)OC(C)(C)C)cc23)ccc1=O
Reply: 0.48

Ask: Look up Ki: COc1ccn2nc(-c3ccccc3)c(-c3ccc(=O)n(C(C)C)n3)c2c1
Reply: 0.15

====

Reported values of melting point for individual entries

Examples with their reported melting point follow.
| Compound | melting point |
| --- | --- |
| CNC(=O)c1ccn2nc(-c3ccccc3)c(-c3ccc(=O)n(C(C)C)n3)c2c1 | 225 to 226 °C |
| CC(C)n1nc(-c2c(-c3ccccc3)nn3ccc(OCCN4CC4)cc23)ccc1=O | 159 to 160 °C |
| CCCn1nc(-c2c(-c3ccc(F)cc3)nn3ccc(OC)cc23)ccc1=O | 190 to 191 °C |
| COc1ccn2nc(-c3ccccc3)c(-c3ccc(=O)n(C4CCCN(C)C4)n3)c2c1 (centres unmarked) | 179 to 180 °C |
| CC(C)n1nc(-c2c(-c3ccccc3)nn3ccc(OCC(=O)NC4CCC(O)CC4)cc23)ccc1=O (centres unmarked) | 146 to 148 °C |

Ask: Look up melting point: CC(=O)Nc1cccc2c(-c3ccc(=O)n(C(C)C)n3)c(-c3ccccc3)nn12
Reply: 92 to 96 °C

Ask: Look up melting point: CC(C)n1nc(-c2c(-c3ccccc3)nn3ccc(OCC(=O)NC4CCCC4)cc23)ccc1=O
Reply: 187 to 188 °C

Ask: Look up melting point: CC(C)n1nc(-c2c(-c3ccccc3)nn3ccc(C#CC(C)(C)O)cc23)ccc1=O
Reply: 171 to 172 °C

====

Reported values of melting point for individual entries

Ask: Look up melting point: CC(C)n1nc(-c2c(-c3ccccc3)nn3ccc(OCC(=O)NCCc4ccccn4)cc23)ccc1=O [Example 60]
Reply: 188 to 190 °C

Ask: Look up melting point: CC(C)n1nc(-c2c(-c3ccccc3)nn3ccc(N)cc23)ccc1=O [Example 146]
Reply: 196 to 197 °C

Ask: Look up melting point: CC(C)n1nc(-c2c(-c3ccccc3)nn3c(N)cccc23)ccc1=O [Example 134]
Reply: 218 to 219 °C

Ask: Look up melting point: CCCn1nc(-c2c(-c3ccccc3)nn3ccc(OC)cc23)ccc1=O [Example 117]
Reply: 174 °C

Ask: Look up melting point: CC(C)n1nc(-c2c(-c3ccccc3)nn3ccc(OC4CCN(C(=O)OC(C)(C)C)CC4)cc23)ccc1=O [Example 29]
Reply: 176 to 179 °C

====

Reported values of melting point for individual entries

Examples with their reported melting point follow.
| Compound | Result Value |
| --- | --- |
| COC(=O)Nc1ccn2nc(-c3ccccc3)c(-c3ccc(=O)n(C(C)C)n3)c2c1 | 213 to 214 °C |
| CC(C)n1nc(-c2c(-c3ccccc3)nn3ccc(OCC(=O)N(C)C)cc23)ccc1=O | 189 to 190 °C |
| CC(C)OCCNC(=O)c1ccn2nc(-c3ccccc3)c(-c3ccc(=O)n(C(C)C)n3)c2c1 | 124 to 125 °C |

Ask: Look up melting point: COc1ccn2nc(-c3ccccc3F)c(-c3ccc(=O)n(C(C)C)n3)c2c1
Reply: 174 to 175 °C

Ask: Look up melting point: COc1ccn2nc(-c3ccccc3)c(-c3ccc(=O)n(C(C)C)n3)c2c1
Reply: 180.5 to 181.5 °C

====

Reported values of Ki for individual entries
molecular target: human A2a receptor (Homo sapiens); experiment: Adenosine antagonistic activity, radioligand binding, A2a receptor; settings: [3H]CGS 21680 20 nM
Sequence (P29274 whole entry): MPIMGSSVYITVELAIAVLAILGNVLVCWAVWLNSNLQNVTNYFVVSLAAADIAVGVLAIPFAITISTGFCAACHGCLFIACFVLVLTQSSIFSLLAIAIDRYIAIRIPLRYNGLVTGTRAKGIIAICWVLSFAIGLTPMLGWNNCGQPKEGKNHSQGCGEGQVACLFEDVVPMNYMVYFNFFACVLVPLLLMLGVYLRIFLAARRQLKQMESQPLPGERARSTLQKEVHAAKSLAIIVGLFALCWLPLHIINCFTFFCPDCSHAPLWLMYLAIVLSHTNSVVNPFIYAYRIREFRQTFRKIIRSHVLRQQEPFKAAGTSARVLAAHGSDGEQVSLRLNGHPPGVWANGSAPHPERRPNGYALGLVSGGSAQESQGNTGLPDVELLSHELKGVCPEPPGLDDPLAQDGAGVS
Value expressed in nM; do not type the unit.

Examples with their reported Ki follow.
| Chemical Structure | Endpoint Label | Result Value |
| --- | --- | --- |
| CC(C)n1nc(-c2c(-c3ccccc3)nn3ccc(NC(=O)OC(C)(C)C)cc23)ccc1=O | Ki | 1.03 |
| COc1ccn2nc(-c3ccccc3)c(-c3ccc(=O)n(C(C)C)n3)c2c1 | Ki | 1.38 |

Ask: Look up Ki: CC(C)n1nc(-c2c(-c3ccccc3)nn3ccc(C(=O)N(C)C)cc23)ccc1=O
Reply: 1.68
